- assay system: ERα (Homo sapiens)
- Construct: host or cells: MCF7 cells
- Sequence (P03372 1-595): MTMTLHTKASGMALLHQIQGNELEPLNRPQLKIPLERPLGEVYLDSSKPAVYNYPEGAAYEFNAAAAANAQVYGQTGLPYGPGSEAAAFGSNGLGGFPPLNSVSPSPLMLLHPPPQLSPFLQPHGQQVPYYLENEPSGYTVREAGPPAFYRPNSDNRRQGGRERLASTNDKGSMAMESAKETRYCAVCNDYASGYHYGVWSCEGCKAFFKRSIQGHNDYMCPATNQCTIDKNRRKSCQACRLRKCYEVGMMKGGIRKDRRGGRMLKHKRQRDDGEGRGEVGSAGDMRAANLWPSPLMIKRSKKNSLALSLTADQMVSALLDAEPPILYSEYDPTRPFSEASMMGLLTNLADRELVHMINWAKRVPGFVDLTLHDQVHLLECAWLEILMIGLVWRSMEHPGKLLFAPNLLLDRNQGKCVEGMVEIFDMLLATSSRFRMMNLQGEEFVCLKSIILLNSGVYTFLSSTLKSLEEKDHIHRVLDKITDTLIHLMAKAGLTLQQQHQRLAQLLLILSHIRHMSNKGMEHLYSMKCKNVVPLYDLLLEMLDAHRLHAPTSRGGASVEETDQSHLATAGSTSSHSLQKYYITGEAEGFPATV
- assay comment: Estrogen receptor degradation activity: breast cancer cell ERα in cell western assay (MCF7 cells)
- Assay type: cell-based
- condition details: 4 hours, final concentrations ranging from 0.3-0.0000018 μM, relative to fulvestrant 0.1 μM positive control
Where a name gives a salt, the structure may show the parent alone.
Attribute: % Degradation At 0.3 μM

>  <compound>
NC(=O)c1ccc(-c2ccc3c(c2)CCCC(c2ccc(Cl)cc2Cl)=C3c2ccc(O[C@H]3CCN(CCCF)C3)cc2)cc1 [Example 81]

>  <% Degradation At 0.3 μM>
67%

$$$$
>  <compound>
O=C1C[C@H](O)CN1c1ccc2c(c1)CCCC(c1ccc(Cl)cc1Cl)=C2c1ccc(O[C@H]2CCN(CCCF)C2)cc1 [Example 85]

>  <% Degradation At 0.3 μM>
69%

$$$$
>  <compound>
C/N=c1\scc(-c2ccc3c(c2)CCCC(c2ccc(Cl)cc2Cl)=C3c2ccc(O[C@H]3CCN(CCCF)C3)cc2)n1C [Example 69, hydrochloride]

>  <% Degradation At 0.3 μM>
69%

$$$$
